Test system: Nakaseomyces glabratus
ASSAY_SUMMARY: Antifungal activity against Candida glabrata assessed as resistant isolates after 48 hrs by broth microdilution
Format: functional
MEASURED_PROPERTY: Activity (%)
Give bare numbers, in %.

{"COMPOUND": "CCC(C)n1ncn(-c2ccc(N3CCN(c4ccc(OCC5COC(Cn6cncn6)(c6ccc(Cl)cc6Cl)O5)cc4)CC3)cc2)c1=O (centres undefined) [ITRACONAZOLE]", "MEASURED_PROPERTY": "Activity", "ENDPOINT_UNIT": "%", "RESULT_NUMBER": 4.6}
{"COMPOUND": "C[C@@H](c1ncncc1F)[C@](O)(Cn1cncn1)c1ccc(F)cc1F [VORICONAZOLE]", "MEASURED_PROPERTY": "Activity", "ENDPOINT_UNIT": "%", "RESULT_NUMBER": 0}
{"COMPOUND": "Nc1nc(=O)[nH]cc1F [FLUCYTOSINE]", "MEASURED_PROPERTY": "Activity", "ENDPOINT_UNIT": "%", "RESULT_NUMBER": 0}

Please turn your attention to the following entry.
Item: OC(Cn1cncn1)(Cn1cncn1)c1ccc(F)cc1F [FLUCONAZOLE] | Activity: 18.2
